Biological target: T1, anti-CD28 scFv (VH-linker 1-VL) (biotinylated (site not stated))
T1 construct: Captured as biotinylated scFv on neutravidin coated plates in the phage ELISA
T1 sequence (scFv, as listed by the source): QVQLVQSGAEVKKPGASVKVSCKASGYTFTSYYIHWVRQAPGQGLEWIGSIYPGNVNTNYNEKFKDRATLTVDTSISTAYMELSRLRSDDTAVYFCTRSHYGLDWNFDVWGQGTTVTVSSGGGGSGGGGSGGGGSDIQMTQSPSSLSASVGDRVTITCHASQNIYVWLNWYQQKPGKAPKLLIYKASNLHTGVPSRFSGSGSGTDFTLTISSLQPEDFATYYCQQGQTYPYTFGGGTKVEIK
Assay: phage ELISA; biotinylated scFv on neutravidin plate; anti-M13-HRP;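 also: crude clonal phage supernatant added to wells pre-incubated with soluble CD28 protein or only blocking buffer, then washed, bound phage read out with an HRP-linked anti-M13 antibody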
outcome-measure: CD28 scFv signal
Give the value as a plain number.

// below: answered binders
binder: MTLCLSVDLVHCWY (on phage (pIII fusion)) [Phage-267 clonal phage peptide]
CD28 scFv signal: 0.632

binder: MDWCPRDLWYQCFN (on phage (pIII fusion)) [Phage-311 clonal phage peptide]
CD28 scFv signal: 2.35

binder: MDWCPRFLWHECFN (on phage (pIII fusion)) [Phage-257 clonal phage peptide]
CD28 scFv signal: 2.59

QUERY: Name the reported CD28 scFv signal value associated with the binder WVSCLRHHWLECFH (on phage (pIII fusion)) [Phage-274 clonal phage peptide]
RESULT: 0.723
